All figures here come from ChEMBL document CHEMBL1156597.

# Tested on: HT-29
# RUN_DESCRIPTION: Cytotoxicity against human HT29 cells after 48 hrs by SRB assay
# Type: functional, cell-based
# TEST_CONDITIONS: Homo sapiens, HT-29, 48 h; read-out: LC50 (the source's name)
Please use yes for CC50 under 700 nM and no for everything else, ties included.

{"columns": ["CHEMICAL_SMILES", "CLASSIFICATION"],
 "data": [
  ["C/C=C1\\NC(=O)[C@H](Cc2ccccc2)NC(=O)[C@@H](C(C)C)NC(=O)[C@@H]([C@H](C)CC)NC(=O)[C@H](NC(=O)[C@H](NC(=O)[C@H](CCCN)NC(=O)[C@H]2CCCN2C(=O)[C@H](NC(=O)[C@H](C)NC(=O)[C@@H](NC(=O)[C@H](NC(=O)CCCC(C)C)C(C)C)[C@@H](C)O)C(C)C)[C@H](C)CC)[C@H](C)OC(=O)[C@H](C(C)C)NC1=O", "yes"],
  ["C/C=C1\\NC(=O)[C@H](Cc2ccccc2)NC(=O)[C@@H](C(C)C)NC(=O)[C@@H]([C@H](C)CC)NC(=O)[C@H](NC(=O)[C@H](NC(=O)[C@H](CCCN)NC(=O)[C@H]2CCCN2C(=O)[C@H](NC(=O)[C@@H](NC(=O)[C@@H](NC(=O)[C@@H](CC(C)C)NC(=O)CCCC(C)C)[C@@H](C)O)C(C)C)C(C)C)[C@H](C)CC)[C@H](C)OC(=O)[C@H](C(C)C)NC1=O", "yes"],
  ["CC[C@@H](C)[C@@H](NC(=O)[C@H](CCCN)NC(=O)[C@H]1CCCN1C(=O)[C@H](NC(=O)[C@@H](NC(=O)[C@@H](NC(=O)[C@H](NC(=O)CCCC(C)C)C(C)C)[C@@H](C)O)C(C)C)C(C)C)C(=O)N[C@H]1C(=O)N[C@H]([C@H](C)CC)C(=O)N[C@H](C(C)C)C(=O)N[C@@H](Cc2ccccc2)C(=O)N[C@H]([C@H](C)O)C(=O)N[C@@H](C(C)C)C(=O)O[C@H]1C", "no"]
]}

Lab log: compare recorded CC50 with 700 nM; is it strictly lower for C=C1NC(=O)[C@H](Cc2ccccc2)NC(=O)[C@@H](C(C)C)NC(=O)[C@@H]([C@H](C)CC)NC(=O)[C@H](NC(=O)[C@H](NC(=O)[C@H](CCCN)NC(=O)[C@H]2CCCN2C(=O)[C@H](NC(=O)[C@@H](NC(=O)[C@@H](NC(=O)[C@H](NC(=O)CCCC(C)C)C(C)C)[C@@H](C)O)C(C)C)C(C)C)[C@H](C)CC)[C@H](C)OC(=O)[C@H](C(C)C)NC1=O ? yes

Lab log: compare recorded CC50 with 700 nM; is it strictly lower for C/C=C1\NC(=O)[C@H](Cc2ccccc2)NC(=O)[C@@H](C(C)C)NC(=O)[C@@H]([C@H](C)CC)NC(=O)[C@H](NC(=O)[C@H](NC(=O)[C@H](CCCN)NC(=O)[C@H]2CCCN2C(=O)[C@H](NC(=O)[C@@H](NC(=O)[C@@H](NC(=O)[C@H](NC(=O)CC[C@@H](C)[C@H]2CC[C@H]3[C@@H]4CC[C@@H]5C[C@H](O)CC[C@]5(C)[C@H]4CC[C@]23C)C(C)C)[C@@H](C)O)C(C)C)C(C)C)[C@H](C)CC)[C@H](C)OC(=O)[C@H](C(C)C)NC1=O ? no

====

# Test system: HT-29
# RUN_DESCRIPTION: Cytotoxicity against human HT29 cells after 48 hrs by SRB assay
# Format: functional, cell-based
# TEST_CONDITIONS: Homo sapiens, HT-29, 48 h; read-out: LC50 (the source's name)
MEASUREMENT_TYPE: CC50 (nM)
One number for each entry, in nM.

Report CC50 for each item below.
1. C/C=C1\NC(=O)[C@H](Cc2ccccc2)NC(=O)[C@@H](C(C)C)NC(=O)[C@@H]([C@H](C)CC)NC(=O)[C@H](NC(=O)[C@H](NC(=O)[C@H](CCCN)NC(=O)[C@H]2CCCN2C(=O)[C@H](NC(=O)[C@H](CC(C)C)NC(=O)[C@@H](NC(=O)[C@H](NC(=O)CCCC(C)C)C(C)C)[C@@H](C)O)C(C)C)[C@H](C)CC)[C@H](C)OC(=O)[C@H](C(C)C)NC1=O
2. C/C=C1\NC(=O)[C@@H]2Cc3ccccc3CN2C(=O)[C@@H](C(C)C)NC(=O)[C@@H]([C@H](C)CC)NC(=O)[C@H](NC(=O)[C@H](NC(=O)[C@H](CCCN)NC(=O)[C@H]2CCCN2C(=O)[C@H](NC(=O)[C@@H](NC(=O)[C@@H](NC(=O)[C@H](NC(=O)CC[C@@H](C)CC)C(C)C)[C@@H](C)O)C(C)C)C(C)C)[C@H](C)CC)[C@H](C)OC(=O)[C@H](C(C)C)NC1=O
3. C/C=C1\NC(=O)[C@H](Cc2ccc(OC)cc2)NC(=O)[C@@H](C(C)C)NC(=O)[C@@H]([C@H](C)CC)NC(=O)[C@H](NC(=O)[C@H](NC(=O)[C@H](CCCN)NC(=O)[C@H]2CCCN2C(=O)[C@H](NC(=O)[C@@H](NC(=O)[C@@H](NC(=O)[C@H](NC(=O)CC[C@@H](C)CC)C(C)C)[C@@H](C)O)C(C)C)C(C)C)[C@H](C)CC)[C@H](C)OC(=O)[C@H](C(C)C)NC1=O
4. C/C=C1\NC(=O)[C@H](Cc2ccccc2)NC(=O)[C@@H](C(C)C)NC(=O)[C@@H]([C@H](C)CC)NC(=O)[C@H](NC(=O)[C@H](NC(=O)[C@H](CCCN)NC(=O)[C@H]2CCCN2C(=O)[C@H](NC(=O)[C@@H](NC(=O)[C@@H](NC(=O)[C@H](NC(=O)CC[C@@H](C)CC)C(C)C)[C@@H](C)O)C(C)C)C(C)C)[C@H](C)CC)[C@H](C)OC(=O)[C@H](C(C)C)NC1=O

479
726
45.4
2060

Report CC50 for each item below.
1. C/C=C1\NC(=O)[C@H](Cc2ccc(-c3ccccc3)cc2)NC(=O)[C@@H](C(C)C)NC(=O)[C@@H]([C@H](C)CC)NC(=O)[C@H](NC(=O)[C@H](NC(=O)[C@H](CCCN)NC(=O)[C@H]2CCCN2C(=O)[C@H](NC(=O)[C@@H](NC(=O)[C@@H](NC(=O)[C@H](NC(=O)CCCC(C)C)C(C)C)[C@@H](C)O)C(C)C)C(C)C)[C@H](C)CC)[C@H](C)OC(=O)[C@H](C(C)C)NC1=O
2. C/C=C1\NC(=O)[C@H](Cc2ccccc2)NC(=O)[C@@H](C(C)C)NC(=O)[C@@H]([C@H](C)CC)NC(=O)[C@H](NC(=O)[C@H](NC(=O)[C@H](NC(=O)CCCC(C)C)C(C)C)[C@H](C)CC)[C@H](C)OC(=O)[C@H](C(C)C)NC1=O

1: 516; 2: 40000

====

# Tested on: PANC-1
# RUN_DESCRIPTION: Cytotoxicity against human PANC1 cells after 48 hrs by SRB assay
# Format: functional
# TEST_CONDITIONS: PANC-1, 48 h, read-out: LC50 (the source's name)
Provide the reported CC50 of each item.
Answers are plain numbers, in nM.

{"columns": ["CHEMICAL_SMILES", "CC50 (nM)"],
 "data": [
  ["C/C=C1\\NC(=O)[C@H](Cc2ccccc2)NC(=O)[C@@H](C(C)C)NC(=O)[C@@H]([C@H](C)CC)NC(=O)[C@H](NC(=O)[C@H](NC(=O)[C@H](CCCN)NC(=O)[C@H]2CCCN2C(=O)[C@H](NC(=O)[C@@H](NC(=O)[C@H](Cc2ccccc2)NC(=O)[C@H](NC(=O)CCCC(C)C)C(C)C)C(C)C)C(C)C)[C@H](C)CC)[C@H](C)OC(=O)[C@H](C(C)C)NC1=O", 1720],
  ["C/C=C1\\NC(=O)[C@H](Cc2ccccc2)NC(=O)[C@@H](C(C)C)NC(=O)[C@@H]([C@H](C)CC)NC(=O)[C@H](NC(=O)[C@H](NC(=O)[C@H](CCCN)NC(=O)[C@H]2CCCN2C(=O)[C@H](NC(=O)[C@@H](NC(=O)[C@@H](NC(=O)[C@H](NC(=O)CCCC(C)C)C(C)C)[C@@H](C)O)C(C)C)C(C)C)[C@H](C)CC)[C@@H](C)OC(=O)[C@H](C(C)C)NC1=O", 8900]
]}

# evaluate next
Query the reported CC50 for PANC-1; item: C/C=C1\NC(=O)[C@H](Cc2ccccc2)NC(=O)[C@@H](C(C)C)NC(=O)[C@@H]([C@H](C)CC)NC(=O)[C@H](NC(=O)[C@H](NC(=O)[C@H](CCCN)NC(=O)[C@H]2CCCN2C(=O)[C@H](NC(=O)[C@@H](NC(=O)[C@@H](NC(=O)[C@@H](CC(C)C)NC(=O)CCCC(C)C)[C@@H](C)O)C(C)C)C(C)C)[C@H](C)CC)[C@H](C)OC(=O)[C@H](C(C)C)NC1=O 2790
